assay: Antiproliferative activity against human L02 cells assessed as cell growth inhibition at 1 uM incubated for 72 hrs by SRB assay; format: toxicity, cell-based
Kindly state inhibition at 72 h, 1 µM for each of the entries shown.
I only need the number, in %, no unit after it.

IN: Please report inhibition at 72 h, 1 µM for the following molecule: CC(=O)OC(C)(C)/C=C/C(=O)[C@](C)(O)[C@H]1[C@H](O)C[C@@]2(C)[C@@H]3CC=C4[C@@H](C[C@H](O)C(=O)C4(C)C)[C@]3(C)C(=O)C[C@]12C
OUT: 70.7

IN: Please report inhibition at 72 h, 1 µM for the following molecule: COc1ccc(-n2cnn(CC(=O)O[C@H]3C[C@@H]4C(=CC[C@@H]5[C@@]4(C)C(=O)C[C@]4(C)[C@@H]([C@@](C)(O)C(=O)/C=C/C(C)(C)OC(C)=O)[C@H](O)C[C@@]54C)C(C)(C)C3=O)c2=O)cc1
OUT: 70.8

----------
Kindly state inhibition at 72 h, 0.1 µM for each of the entries shown.
test: Antiproliferative activity against human L02 cells assessed as cell growth inhibition at 0.1 uM incubated for 72 hrs by SRB assay; assay type: toxicity, cell-based
I only need the number, in %, no unit after it.

IN: Please report inhibition at 72 h, 0.1 µM for the following molecule: COc1ccc(-n2cnn(CC(=O)O[C@H]3C[C@@H]4C(=CC[C@@H]5[C@@]4(C)C(=O)C[C@]4(C)[C@@H]([C@@](C)(O)C(=O)/C=C/C(C)(C)OC(C)=O)[C@H](O)C[C@@]54C)C(C)(C)C3=O)c2=O)cc1
OUT: 31.4

IN: Please report inhibition at 72 h, 0.1 µM for the following molecule: COc1ccc(/C=C/C(=O)O[C@H]2C[C@@H]3C(=CC[C@@H]4[C@@]3(C)C(=O)C[C@]3(C)[C@@H]([C@@](C)(O)C(=O)/C=C/C(C)(C)OC(C)=O)[C@H](O)C[C@@]43C)C(C)(C)C2=O)cc1
OUT: -9.08

IN: Please report inhibition at 72 h, 0.1 µM for the following molecule: CC(=O)OC(C)(C)/C=C/C(=O)[C@](C)(O)[C@H]1[C@H](O)C[C@@]2(C)[C@@H]3CC=C4[C@@H](C[C@H](OC(=O)/C=C/c5ccc(C)cc5)C(=O)C4(C)C)[C@]3(C)C(=O)C[C@]12C
OUT: 1.88

IN: Please report inhibition at 72 h, 0.1 µM for the following molecule: CC(=O)OC(C)(C)/C=C/C(=O)[C@](C)(O)[C@H]1[C@H](O)C[C@@]2(C)[C@@H]3CC=C4[C@@H](C[C@H](OC(=O)Cn5ncn(-c6ccc(Cl)cc6)c5=O)C(=O)C4(C)C)[C@]3(C)C(=O)C[C@]12C
OUT: 61.3

----------
assay: Selectivity index, ratio of IC50 for antiproliferative activity against human L02 cells to IC50 for antiproliferative activity against human HepG2 cells; assay type: toxicity, cell-based; details: L02 cells versus HepG2 cells, read-out: Ratio IC50
Kindly state selectivity ratio for each of the entries shown.
Format: numeric value only, no unit, no commentary.

IN: Please report selectivity ratio for the following molecule: CC(=O)OC(C)(C)/C=C/C(=O)[C@](C)(O)[C@H]1[C@H](O)C[C@@]2(C)[C@@H]3CC=C4[C@@H](C[C@H](O)C(=O)C4(C)C)[C@]3(C)C(=O)C[C@]12C
OUT: 0.22

IN: Please report selectivity ratio for the following molecule: CC(=O)OC(C)(C)/C=C/C(=O)[C@](C)(O)[C@H]1[C@H](O)C[C@@]2(C)[C@@H]3CC=C4[C@@H](C[C@H](OC(=O)Cn5ncn(-c6ccc(F)cc6)c5=O)C(=O)C4(C)C)[C@]3(C)C(=O)C[C@]12C
OUT: 1.25
